Data provenance is paper PMC4457840.

Target: UniProtKB Q8TCT7
Sequence (Q8TCT7 26-592): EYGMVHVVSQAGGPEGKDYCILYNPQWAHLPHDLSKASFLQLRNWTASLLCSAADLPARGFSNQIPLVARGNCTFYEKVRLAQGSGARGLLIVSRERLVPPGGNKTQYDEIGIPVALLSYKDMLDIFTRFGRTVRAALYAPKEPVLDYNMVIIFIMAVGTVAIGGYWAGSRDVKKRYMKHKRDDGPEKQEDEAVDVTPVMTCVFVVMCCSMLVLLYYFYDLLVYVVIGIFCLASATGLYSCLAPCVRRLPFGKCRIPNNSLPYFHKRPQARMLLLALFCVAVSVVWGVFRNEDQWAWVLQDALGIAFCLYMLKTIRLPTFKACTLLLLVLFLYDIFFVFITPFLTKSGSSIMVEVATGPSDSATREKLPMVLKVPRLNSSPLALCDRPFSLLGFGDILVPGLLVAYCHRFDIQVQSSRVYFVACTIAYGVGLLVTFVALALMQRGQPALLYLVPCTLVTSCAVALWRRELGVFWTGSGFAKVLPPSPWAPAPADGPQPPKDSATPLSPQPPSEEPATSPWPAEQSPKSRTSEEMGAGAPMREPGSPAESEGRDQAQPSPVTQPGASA
Test: FBA/SPPL2b co-transfected HEK 293T cell cleavage assay (Aβ ELISA, Western blot, IP/MS)
Conditions: HEK cells, 24 h, xAβ1-25/K16A by Aβ ELISA, mean ± standard error, read-out: IC50 on FBA/SPPL co-transfected cells
Numbered stars: 1 amine (or outer) side, 2 acyl side, 3 side chain; on linkers, the order of the positions; unused ones are H or OH. Square brackets hold non-standard residues; d marks the D form. Peptide text beside a SMILES is read from it. * marks the point of attachment. X1 = CC(N[*:1])C(=O)C(F)(F)C(=O)[*:2]; Boc = CC(C)(C)OC(=O)*

# compound, IC50
records = [
    ("CC(C)C[C@H](NC(=O)OCc1ccccc1)C(=O)N[C@@H](CC(C)C)C(=O)NCC(=O)CNC(=O)[C@H](CC(C)C)NC(=O)[C@H](CC(C)C)NC(=O)OCc1ccccc1 [(Z-LL)2 ketone]", "2140 nM"),
    ("CC(C)C[C@H](NC(=O)[C@H](Cc1ccccc1)C[C@@H](O)[C@H](Cc1ccccc1)NC(=O)OC(C)(C)C)C(=O)N[C@@H](Cc1ccccc1)C(N)=O", "876 nM"),
    ("C[C@H](NC(=O)[C@@H](O)c1cc(F)cc(F)c1)C(=O)N[C@@H]1C(=O)N(C)c2ccccc2-c2ccccc21", "5500 nM"),
    ("CC[C@H](C)[C@H](NC(=O)[C@@H](NC(=O)OC(C)(C)C)C(C)C)C(=O)NC(C)C(=O)C(F)(F)C(=O)N[C@H](C(=O)N[C@H](C(=O)OC)[C@@H](C)CC)C(C)C (stereo partly shown) [GSI II] (Boc-VI[X1]VI-OMe)", "3600 nM"),
]
